test system: MS2 coat protein; test: apparent KD of MS2 coat protein; designed switch direction (-1 OFF switch, 1 ON switch): 1; higher = weaker reporter binding; details: input ligand: none
Value kind: apparent KD of MS2 coat protein (nM)
Answer format: numeric, nM implied, no suffix.

Exam item: Any idea what apparent KD of MS2 coat protein came out for UGACACACGGCAGGAUAUCGAUAGCAAAGCUAUCGAGAAGGGCCUCAUGUCGUGGAAACGUGACAUGAGGAUCACCCAUGUCGC [Omei SS(NG)1 Cv12] (Eterna round: R96, puzzle: Same State NG 1) on MS2 coat protein?
Marked response: 26.6

Exam item: // next record UGCUAGUGGGUAGGAUAUUUAGGAUAUGGGAAAGACUAAGUCUGUAGGUCACCUAACCCAGAAGGAGAGAAGGACCCUUCAGCU [pwkr ssNG2 2FMN + F9.28] (Eterna round: R96, puzzle: Same State NG 2)
Marked response: 38.9

Exam item: // next record UUUAUUUAUGCAGGAUAUGAUUAACAUGAGGAUCACCCAUGUGGUGUUGUGAGUAAGGAGAGUGAUCAGAAGGGCAUUUUUUUU [JMF's solution 76] (Eterna round: R96, puzzle: Same State NG 2)
Marked response: 487

Exam item: // next record GGCUGCAAUUAUGAGGAUAUGUUCGGAUGAACAUGAGGAUCACCCAUGUGGCGAUAGCUAUCUGUGCAGAAGGUGUAGUGGUAGC [Edlexete] (Eterna round: R96, puzzle: Same State 2)
Marked response: 186

Exam item: // next record ACAUGAAAUUGAGGAUAUUUUGUACCUACAUGUGACAUGAGGAUCACCCAUGUGGUAAGUAUAAGAAAGAAGGCAAAGAUAUGU [Equivalence 7 - Jieux - Same State NG 2] (Eterna round: R96, puzzle: Same State NG 2)
Marked response: 64.9

Exam item: // next record GCCGCGUUUCGCGCCUACAUGAGGAUCACCCAUGUUUGUAGGCAGGAUAUCGUUUGCUUUGCAAACGAGAAGGGCUGUUGUGGC [salish99_SSNG3_R04_012] (Eterna round: R96, puzzle: Same State NG 3)
Marked response: 50.2

Exam item: // next record AGAGGAGGAGCAGGAUAUUCGACGGAGGACGUGGAAGAAGGGUUCAUGCGAUGACAUGAGGAUCACCCAUGUACCGCGCGUCGA [AK SSNG1-V2-15.1] (Eterna round: R96, puzzle: Same State NG 1)
Marked response: 478

Exam item: // next record UUGCUCGUGUGAGGAUAUGCAGCCGUUUCGGCUGCAGAAGGUACUAUAAUACAUGAGGAUCACCCAUGUCUCUGUUGUUUGGUG [salish99_SSNG1_r04_930] (Eterna round: R96, puzzle: Same State NG 1)
Marked response: 63.7

Exam item: // next record GGCACAGCGUGAGGAUAUCGGUACGCACGUAGUCGAGAAGGUACCUGAAAUGGUACACAUGAGGAUCACCCAUGUGACUGGGCA [Eternabot solution 14] (Eterna round: R96, puzzle: Same State NG 1)
Marked response: 41.6

Exam item: // next record GGUGCGAAUAAAGCCUACAUGAGGAUCACCCAUGUAUGUAGGCAGGAUAUCGUUUGCUUUGCAAACGAGAAGGGCUGACGCACC [JL SSNG3 1.17] (Eterna round: R96, puzzle: Same State NG 3)
Marked response: 63.6

Exam item: // next record GGAAUAUGAUGUUACAUGAGGAUCACCCAUGUAGUGACAACUAAGGAUAUCUGAAAAGAAGGAGAGGAGAAGGUAGGAUCAUAA [AK SSNG3-V2-14.1] (Eterna round: R96, puzzle: Same State NG 3)
Marked response: 36

Exam item: // next record AGGACGAGCACAGGAUAUCCACGGAAAAGACGCGGAGAAGGGUGAAGUCAUGGAAAGAAAAGACAUGAGGAUCACCCAUGUAAA [Dibema] (Eterna round: R96, puzzle: Same State NG 1)
Marked response: 28.4

Exam item: // next record GGAGCCGGCCUAGGAUAUUUCAUUAAUAAACAUGAGGAUCACCCAUGUAGGCCAGAAGGCCUUGGGAAGAAGGAGGUCGGCUCC [Loop Effect - U24,U27] (Eterna round: R96, puzzle: Same State NG 2)
Marked response: 37.7

Exam item: // next record AUACAUAUCAGAGGAUAUCACGUCGAAUAGACGUGAGAAGGCUGAUCACACAUGAAUAUUAAUACAUGAGGAUCACCCAUGUAU [SSNG1/14-A1] (Eterna round: R96, puzzle: Same State NG 1)
Marked response: 17.4

Exam item: // next record GGUGCCAAAUAAGCCUACAUGAGGAUCACCCAUGUAUGUAGGUAGGAUAUCGUAUGCAAAGCAUACGAGAAGGGCCUAGGCACC [Mat - Same State NG 3 - JL Mod - D60] (Eterna round: R96, puzzle: Same State NG 3)
Marked response: 60.7

Exam item: // next record AGAGGAGGAGCAGGAUAUUCGAAGGAGGACGUGGAAGAAGGGUUCAUGCGAUGACAUGAGGAUCACCCAUGUACCGCGCGUCGA [AK SSNG1-V2-15] (Eterna round: R96, puzzle: Same State NG 1)
Marked response: 484

Exam item: // next record UGGCUCAGACUAGGAUAUGAUCAUGGCGCUUCGGCGCAUACAUGAGGAUCACCCAUGUAAAGUGAUCAGAAGGAGUCUGAGCCU [SSNG2/7-C3] (Eterna round: R96, puzzle: Same State NG 2)
Marked response: 19.7

Exam item: // next record GGAGCCGGCCUAGGAUAUUUCAUACAAAAACAUGAGGAUCACCCAUGUAGGCCAGAAGGCCUUGGGAAGAAGGAGGUCGGCUCC [Loop Effect - C25] (Eterna round: R96, puzzle: Same State NG 2)
Marked response: 34.2
